Experiment: qHTS profiling of the MIPE4 collection as inhibitors of Plasmodium falciparum (HB3) proliferation (AID 743347);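 note: plate controls were DMSO vehicle wells for no effect and artemisinin wells for full effect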
Conditions: P. falciparum HB3 in erythrocytes, SYBR Green DNA, 72 h; at 28.5 µM (top of the series) unless noted
Protocol: Plasmodium falciparum is a virulent malarial parasite that kills 1-2 million people worldwide each year. […] Because mature erythrocytes lack DNA, only Plasmodium-derived DNA is detected. The SYBR Green viability assay was adapted from a method described previously (Plouffe et al., 2008). […] The following morning, fluorescence intensity at 485(14) nm excitation and 535(25) nm emission wavelengths was measured on an EnVision (Perkin Elmer) plate reader. […]
# strict inequality: growth, % of control < 40% yields true (1), everything else yields false (0)

1) NC(=O)c1ccc2[nH]ccc2c1 : false (0)

Now look at this one.
Ask: Dear colleague, could you confirm whether growth, % of control of `CC[C@H](NC(C)C)[C@H](O)c1ccc(O)c2[nH]c(=O)ccc12` falls below 40%? Thanks.
Reply: false (0)
